# Test system: SNB-75
# ASSAY INFO: NCI tumour cell line growth inhibition, 48 h
The source made the active and inactive calls. Cut-off read from the data, not from the text of the source: active = GI50 up to about 1.1 µM and inactive = higher.
RESULT TYPE: GI50

MOLECULE	EXPERIMENTAL SYSTEM	REPORTED MEASUREMENT
O=C1c2c(F)c(F)c(F)c(F)c2SC2=Nc3cccc4cccc(c34)N12	SNB-75	12.1 µM (inactive)
O=C1C2C3C=C4c5ccccc5N(c5ccccc5)C4(C2C(=O)N1c1ccc([N+](=O)[O-])cc1)[C@H]1C(=O)N(c2ccc([N+](=O)[O-])cc2)C(=O)[C@@H]31 (some centres undefined)	SNB-75	11.1 µM (inactive)
NC(CCC(=O)O)C(=O)N1CCN(c2nc(N3CCCC3)c3nc(Cl)c(NCc4ccccc4)nc3n2)CC1 (centres undefined)	SNB-75	12 µM (inactive)
O=c1cc[nH]c2ccc3nn[nH]c3c12	SNB-75	> 100 µM (inactive)
Cc1c(C)c2c(c(N)c1C#N)C(=O)N(Nc1ccccc1)C2=O	SNB-75	30.6 µM (inactive)
COc1ccc(/C=C2\CCC(C)C3C2=NN(c2ccccc2)C3c2ccc(OC)c(OC)c2)cc1OC (centres undefined)	SNB-75	1.18 µM (inactive)
N#CC(C#N)/N=N/c1ccc(-c2nc3ccccc3s2)cc1	SNB-75	25.9 µM (inactive)
Cc1ccc(-c2c(N)nc(NC#N)nc2CCC(=O)Nc2ccccc2[N+](=O)[O-])cc1	SNB-75	> 100 µM (inactive)
C1=C(c2ccccc2)C(N2CCOCC2)Oc2ccccc21 (centres undefined)	SNB-75	32.5 µM (inactive)
